# TEST_TARGET: T1, GPIa/IIa on a stable K562 cell line (UniProt P17301 30-1181; P05556 21-798, limits assumed)
# T1 construct: whole, on cells; also called K562 cell line expressing GPIa/IIa
# METHOD_SUMMARY: flow cytometry on K562 cells expressing GPIa/IIa

{"columns": ["BINDER", "binding result"],
 "data": [
  ["H37L45 (Fab, V domains shown, Soluble Fab) VH: QVQLVESGGGVVQPGRSLRLSCAASGFTFSNYAMHWVRQAPGKGLEWVAVISYDGSNKYYADSVKGRFTISRDNSKNTLYLQMNSLRPEDTAVYYCARGGVAAFDYWGQGTLVTVSS VL: DIVMTQSPVSLAVTPGEPASISCRSSQSLLHSNGYNYLDWYLQKPGQSPQLLIYLGSTRASGVPDRFSGSGSGTDFTLKINRVEAEDVGVYYCMQALQSPFTFGGGTKVQIK", "no binding"],
  ["H39L46 (Fab, V domains shown, Soluble Fab) VH: QVQLVESGGGVVQPGRSLRLSCAASGFTFSNYAMHWVRQAPGKGLEWVAVISYDGSNKYYADSVKGRFTISRDNSKNTLYLQMNSLRPEDTAVYYCARGGVAAFDYWGQGTLVTV VL: DIVMTQSPLSLPVTPGEPASISCRSSQSLLHSNGNNYLDWYLQKPGQSPQLLIYLASNRASGVPDRFSGSGSGTDFTLKISRVEPEDVGLYYCMQALQTPLTFGGGSKVEIK", "no binding"],
  ["H47L64 (Fab, V domains shown, Soluble Fab, clone A; also called putative GPIb/IX-specific Fab) VH: QVQLVESGGGVVQPGRSLRLSCATSGFTFSNFNMHWVRQAPGKGLEWVALISYDGSNKNYANSVKGRFTISRDNSKNTLFLQMNSLRVEDTAVYYCMVVGAFDYWGQGTLVTVSS VL: EIVLTQSPDTLSLSPGDRATLSCRASQSVSNYLAWYQQKAGRAPSLLIYGTSRRATDIPDRFSGSGSGTDFTLTISRLEPEDSAVYYCQQYGSASLTFGGGTKVEIK", "no binding"],
  ["H45L61 (Fab, V domains shown, Soluble Fab, clone A) VH: QVQLVESGGGVVQPGRSLRLSCAASGFTFSNFNMHWVRQAPGKGLEWVALISYDGSSKYYTDSVKGRFTISRDNSKNTLYLQMNSLRPEDTAVYYCMVVGAFDYWGQGTLVTVSS VL: EIVLTQSPGTLSLSPGERATLSCRASQSVGSSYLAWYQQKPGQAPRLLIYGVSSRATGIPDRFSGSGSGTDFTLTISRLEPEDFAVYYCQQYGGSPLTFGGGTTVEIK", "no binding"],
  ["H10L122 (Fab, V domains shown, Soluble Fab) VH: QVQLVQSGAEVKKPGASVKVSCKASGYSFSNYYMHWVRQAPGEGLEWMGIINPKGGTTSYAQKFQGRVTIAADKFTNSAYMEPSSLRYEDTAVYFCARAKFSWSPDIWGQGTVVTVSS VL: QAVVTQEPSLTVSPGGTVTLTCDSSTGAVTSGHYPYWLQQKPGQAPRTLIYDTHNKHSWTPGRFSGSLLGGKAALTLSGAQPEDEAEYYCSLSYSAVWVFGGGTKLTVL", "no binding"]
]}
